FYI, the data here is from patent US20260242478A1.

- TEST TARGET: T1, PSMA Fab
- T1 construct: also called 006 PSMA Fab; anti-PSMA Fab
- METHOD NOTES: competition ELISA; peptide 0-100 µM with 0.3 nM PSMA Fab on plate-captured biotinylated PSMA
VALUE TYPE: log10 of IC50 (log10 of the value in nM)
Note: values are log10 of IC50 expressed in nM.

Entry under test: TTHVCIPSWMCSGF (From the Peptide-180 optimisation phage library) [Peptide-280] . Its log10 of IC50 was 3.82

Entry under test: ESRLCVPAWMCAGF (From the Peptide-180 optimisation phage library) [Peptide-270] . Its log10 of IC50 was 2.85

Entry under test: VNHWCVPTWMCAGF (From the Peptide-180 optimisation phage library) [Peptide-281] . Its log10 of IC50 was 3.01

Entry under test: AVKACIPEWMCIGF (From the Peptide-180 optimisation phage library) [Peptide-263] . Its log10 of IC50 was 2.79

Entry under test: PEHLCLPRWMCEGF (From the Peptide-180 optimisation phage library) [Peptide-278] . Its log10 of IC50 was 3.38

Entry under test: ITPVCKPLWMCSGL (From the Peptide-180 optimisation phage library) [Peptide-274] . Its log10 of IC50 was 2.52

Entry under test: TEVRCTPPWMCLGF (From the Peptide-180 optimisation phage library) [Peptide-284] . Its log10 of IC50 was 2.99

Entry under test: VEKVCKPVWMCVGF (From the Peptide-180 optimisation phage library) [Peptide-268] . Its log10 of IC50 was 2.40

Entry under test: YERACIPNWICEGF (From the Peptide-180 optimisation phage library) [Peptide-279] . Its log10 of IC50 was 3.71

Entry under test: ITPICKPAWICSGF (From the Peptide-180 optimisation phage library) [Peptide-276] . Its log10 of IC50 was 3.54
